Recorded IC50 values for a group of molecules are listed next.
Target: UniProt Q8IL11
Sequence (Q8IL11 whole entry): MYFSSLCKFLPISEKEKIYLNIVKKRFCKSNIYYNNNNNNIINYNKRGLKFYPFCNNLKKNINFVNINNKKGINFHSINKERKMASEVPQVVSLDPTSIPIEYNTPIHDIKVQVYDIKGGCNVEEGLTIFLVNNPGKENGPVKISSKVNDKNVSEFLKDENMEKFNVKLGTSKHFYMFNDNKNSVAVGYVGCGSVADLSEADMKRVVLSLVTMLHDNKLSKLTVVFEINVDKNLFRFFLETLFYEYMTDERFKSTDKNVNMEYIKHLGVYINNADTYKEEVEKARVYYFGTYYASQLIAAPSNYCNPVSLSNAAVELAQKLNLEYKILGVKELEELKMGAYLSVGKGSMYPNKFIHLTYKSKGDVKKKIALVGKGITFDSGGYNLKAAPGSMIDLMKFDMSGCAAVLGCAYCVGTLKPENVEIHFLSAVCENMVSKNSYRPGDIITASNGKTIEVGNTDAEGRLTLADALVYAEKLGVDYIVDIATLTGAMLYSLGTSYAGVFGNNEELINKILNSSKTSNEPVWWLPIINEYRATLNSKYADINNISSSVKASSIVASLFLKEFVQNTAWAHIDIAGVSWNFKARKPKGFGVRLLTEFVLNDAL
Experiment: P. falciparum M17LAP inhibitors, primary screen, biochemical, fluorogenic H-Leu-NHMec substrate, 1536-well (AID 1619)
Type: functional
Active and inactive are the calls of the source. How the calls were made is not given here.
testReadout: IC50

{"molecule": "CC(=O)NS(=O)(=O)c1ccc(/N=c2\\ssc3c2-c2cc(C)c(C)cc2NC3(C)C)cc1", "valueMeasured": "3.72 µM (active)"}
{"molecule": "CCc1cccc(NC(=O)CSCc2cc(O)[nH]n2)c1", "valueMeasured": "25.9 µM (active)"}
{"molecule": "CC(C)C(=O)Nc1nnc(SCC(=O)Nc2ccc3c(c2)OCCO3)s1", "valueMeasured": "18.9 µM (active)"}
{"molecule": "CCOc1ccc(NC(=O)Cc2ccccc2)c([N+](=O)[O-])c1", "valueMeasured": "2.92 µM (active)"}
{"molecule": "COc1ccc(S(=O)(=O)NC2=NC(=O)/C(=C/c3ccco3)S2)cc1", "valueMeasured": "124 µM (active)"}
{"molecule": "O=C(CN1C(=O)c2ccccc2C1=O)NCC1COc2ccccc2O1 (stereo unspecified)", "valueMeasured": "15.6 µM (active)"}

# credit: ChEMBL document CHEMBL1201862
